Target: purified human NOS2 (Homo sapiens, UniProt P35228)
Construct: determined using purified recombinant full-length human NOS1 and NOS2
Sequence (P35228 whole entry): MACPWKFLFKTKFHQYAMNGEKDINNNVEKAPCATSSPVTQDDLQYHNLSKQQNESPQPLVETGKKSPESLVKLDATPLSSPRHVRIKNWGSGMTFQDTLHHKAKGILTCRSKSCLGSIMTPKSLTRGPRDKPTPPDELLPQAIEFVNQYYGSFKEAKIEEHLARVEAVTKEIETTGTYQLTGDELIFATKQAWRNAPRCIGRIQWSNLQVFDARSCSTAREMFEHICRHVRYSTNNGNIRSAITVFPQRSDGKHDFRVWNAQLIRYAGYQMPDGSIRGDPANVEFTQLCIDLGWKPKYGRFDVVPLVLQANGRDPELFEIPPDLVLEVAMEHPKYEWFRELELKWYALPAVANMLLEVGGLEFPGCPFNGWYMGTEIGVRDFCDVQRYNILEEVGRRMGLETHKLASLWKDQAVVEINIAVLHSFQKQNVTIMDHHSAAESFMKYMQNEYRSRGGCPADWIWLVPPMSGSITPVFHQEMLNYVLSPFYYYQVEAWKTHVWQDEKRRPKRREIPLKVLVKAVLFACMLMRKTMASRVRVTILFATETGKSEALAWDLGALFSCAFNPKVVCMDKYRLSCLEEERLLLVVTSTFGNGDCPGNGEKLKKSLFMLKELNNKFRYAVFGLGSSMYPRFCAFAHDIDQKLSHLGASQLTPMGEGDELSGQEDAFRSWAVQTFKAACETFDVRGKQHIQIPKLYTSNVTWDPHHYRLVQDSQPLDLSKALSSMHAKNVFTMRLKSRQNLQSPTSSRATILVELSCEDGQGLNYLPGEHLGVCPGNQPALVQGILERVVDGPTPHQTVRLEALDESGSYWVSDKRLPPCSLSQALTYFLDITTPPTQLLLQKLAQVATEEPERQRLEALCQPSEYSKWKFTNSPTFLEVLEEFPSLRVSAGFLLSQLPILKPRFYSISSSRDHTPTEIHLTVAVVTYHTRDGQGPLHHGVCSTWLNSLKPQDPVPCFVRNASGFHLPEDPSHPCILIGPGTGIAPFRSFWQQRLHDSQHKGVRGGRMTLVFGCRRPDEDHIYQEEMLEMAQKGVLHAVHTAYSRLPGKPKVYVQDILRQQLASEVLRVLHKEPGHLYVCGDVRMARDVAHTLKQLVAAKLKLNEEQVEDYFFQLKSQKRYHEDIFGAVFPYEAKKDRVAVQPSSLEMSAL
Assay: Inhibition of purified NOS2 enzyme activity
Conditions: mean ± SEM, N = 3
Counter-ions that a name gives are not always drawn.
observation type: IC50 (µM)

* CC1CCN=C(N)S1 (centres unmarked) [AMT, HCl] | 0.054
* O=[N+]([O-])c1cccc2cn[nH]c12 | 45
* N=C(N)SCCc1cccc(CCSC(=N)N)c1 | 1.6
* N=C(N)SCCCN | 1.9
* COC(=O)[C@@H](N)CCCNC(N)=N[N+](=O)[O-] [L-NAME, N^G-Nitro-L-arginine-methyl ester HCl] | 17
* CC(=N)NCCCC[C@H](N)C(=O)O | 2.1
* CCCNC(=N)NCCC[C@H](N)C(=O)O | 146
* N=C(N)NCCSSCCNC(=N)N [GED, Guanidinoethyldisulfide 2H2CO3] | 50
* CCSC(=N)N | 1200
* CC(=N)NCCSCC[C@H](N)C(=O)O | 1.8
* CCSC(=N)Nc1ccc(C(F)(F)F)cc1 [ETPI, HCl] | 1500

###

Target: purified recombinant rat NOS1 oxygenase domain (Rattus norvegicus)
Construct: purified recombinant rat NOS1 oxygenase domain
Sequence (P29476 1-720 limits assumed): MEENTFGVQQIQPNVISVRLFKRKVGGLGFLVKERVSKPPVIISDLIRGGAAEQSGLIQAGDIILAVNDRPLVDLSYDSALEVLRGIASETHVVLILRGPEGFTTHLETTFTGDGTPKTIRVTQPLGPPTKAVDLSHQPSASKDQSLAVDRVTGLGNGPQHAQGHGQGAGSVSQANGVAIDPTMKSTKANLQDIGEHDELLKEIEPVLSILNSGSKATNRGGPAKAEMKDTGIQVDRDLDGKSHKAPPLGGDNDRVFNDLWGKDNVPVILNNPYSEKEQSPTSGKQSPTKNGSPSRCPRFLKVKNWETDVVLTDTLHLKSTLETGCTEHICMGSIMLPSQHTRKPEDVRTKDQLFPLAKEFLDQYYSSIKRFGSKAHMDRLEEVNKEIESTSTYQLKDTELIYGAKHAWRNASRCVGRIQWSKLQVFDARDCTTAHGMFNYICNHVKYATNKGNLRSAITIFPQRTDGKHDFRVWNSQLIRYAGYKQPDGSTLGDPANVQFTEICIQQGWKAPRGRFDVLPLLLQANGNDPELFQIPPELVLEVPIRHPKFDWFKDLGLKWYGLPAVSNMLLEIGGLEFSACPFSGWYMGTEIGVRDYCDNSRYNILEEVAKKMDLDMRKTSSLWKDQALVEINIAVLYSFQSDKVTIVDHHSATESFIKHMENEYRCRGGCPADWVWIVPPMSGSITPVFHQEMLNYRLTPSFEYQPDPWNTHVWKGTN
Assay: NOS inhibitor binding (Kd) to NOS1
Counter-ions that a name gives are not always drawn.
observation type: Kd (µM)

* C=CCC(=N)NCCC[C@H](N)C(=O)O | 0.1
* CC(=N)NCCCC[C@H](N)C(=O)O | 0.7
* COC(=O)[C@@H](N)CCCNC(N)=N[N+](=O)[O-] [L-NAME, N^G-Nitro-L-arginine-methyl ester HCl] | 0.5
* CCSC(=N)Nc1ccc(C(F)(F)F)cc1 [ETPI, HCl] | 0.1

###

Tested on: CLL cells
Test: Cytotoxicity of NOS inhibitors for CLL cells in vitro (MTS assay)
Conditions: read-out: Mean ED50 ± S.E.M. (CLL cell cytotoxicity); MTS assay; CLL cell samples from different subjects
Where a name gives a salt, the structure may show the parent alone.
observation type: EC50 (µM)

- CSC(=N)N [S-Methyl ITU, S-methylisothiourea sulfate]: 3080
- Cl.Cl.N=C(Nc1ccc(CCNCc2cccc(Cl)c2)cc1)c1cccs1 [AR-R17477, dihydrochloride]: 7

###

Entries and their measured Kd follow.
Target: purified recombinant human NOS2 oxygenase domain (Homo sapiens)
Construct: purified recombinant human NOS2 oxygenase domain
Assay: NOS inhibitor binding (Kd) to NOS2
Protocol: […] The cLogP value for each NOS inhibitor was determined using the CLOGP computer program (BioByte, Claremont, Calif.). […] Linear regression was used to examine the correlation between the IC50, Kd and cLogP values and ED50 values. We determined the dissociation constant for NOS inhibitor binding (Kd) to purified recombinant and NOS2.
Where a name gives a salt, the structure may show the parent alone.
observation type: Kd (nM)

* COC(=O)[C@@H](N)CCCNC(N)=N[N+](=O)[O-] [L-NAME, N^G-Nitro-L-arginine-methyl ester HCl] | 600
* CC(=N)NCCCC[C@H](N)C(=O)O | 500
* C=CCC(=N)NCCC[C@H](N)C(=O)O | 500
* CCCNC(=N)NCCC[C@H](N)C(=O)O | 7000
* CCSC(=N)Nc1ccc(C(F)(F)F)cc1 [ETPI, HCl] | 500

###

Biological target: purified human NOS1 (Homo sapiens)
Construct: determined using purified recombinant full-length human NOS1 and NOS2
Sequence (P29475 whole entry): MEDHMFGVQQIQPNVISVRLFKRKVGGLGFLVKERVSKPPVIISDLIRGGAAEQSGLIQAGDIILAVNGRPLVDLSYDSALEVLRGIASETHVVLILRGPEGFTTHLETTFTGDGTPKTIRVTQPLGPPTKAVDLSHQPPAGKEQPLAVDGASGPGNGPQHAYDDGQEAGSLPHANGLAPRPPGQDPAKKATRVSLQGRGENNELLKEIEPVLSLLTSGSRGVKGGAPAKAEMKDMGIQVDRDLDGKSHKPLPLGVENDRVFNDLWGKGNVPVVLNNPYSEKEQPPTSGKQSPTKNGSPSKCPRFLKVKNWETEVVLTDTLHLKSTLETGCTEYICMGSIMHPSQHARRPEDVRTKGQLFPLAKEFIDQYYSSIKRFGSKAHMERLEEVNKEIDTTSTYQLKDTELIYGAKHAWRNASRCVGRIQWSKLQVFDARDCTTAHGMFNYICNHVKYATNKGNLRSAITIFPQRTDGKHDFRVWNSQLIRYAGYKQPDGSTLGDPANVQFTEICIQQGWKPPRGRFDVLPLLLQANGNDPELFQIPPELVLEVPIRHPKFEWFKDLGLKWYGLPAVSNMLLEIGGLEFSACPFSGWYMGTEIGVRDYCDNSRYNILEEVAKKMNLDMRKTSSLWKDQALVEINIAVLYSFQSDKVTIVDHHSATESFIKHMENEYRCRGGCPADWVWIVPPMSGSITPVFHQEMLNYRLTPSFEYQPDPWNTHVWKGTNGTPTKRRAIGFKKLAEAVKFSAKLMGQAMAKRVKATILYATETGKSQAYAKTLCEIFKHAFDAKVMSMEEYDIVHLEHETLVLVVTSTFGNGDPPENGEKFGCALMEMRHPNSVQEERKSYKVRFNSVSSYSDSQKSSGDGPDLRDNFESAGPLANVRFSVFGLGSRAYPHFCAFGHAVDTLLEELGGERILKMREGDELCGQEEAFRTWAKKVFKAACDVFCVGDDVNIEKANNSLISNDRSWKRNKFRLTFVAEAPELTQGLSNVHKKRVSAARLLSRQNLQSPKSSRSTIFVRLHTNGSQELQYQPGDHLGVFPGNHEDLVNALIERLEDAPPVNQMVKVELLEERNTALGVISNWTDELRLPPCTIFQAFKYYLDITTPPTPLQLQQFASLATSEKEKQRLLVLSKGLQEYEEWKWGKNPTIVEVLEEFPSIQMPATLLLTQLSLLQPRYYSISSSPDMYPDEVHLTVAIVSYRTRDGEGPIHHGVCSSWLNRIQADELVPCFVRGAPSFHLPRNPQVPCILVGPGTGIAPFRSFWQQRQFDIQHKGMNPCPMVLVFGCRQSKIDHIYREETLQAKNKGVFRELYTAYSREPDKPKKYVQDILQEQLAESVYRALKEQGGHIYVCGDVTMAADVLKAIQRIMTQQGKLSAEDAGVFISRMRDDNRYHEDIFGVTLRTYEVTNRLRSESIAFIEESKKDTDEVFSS
Assay: Inhibition of purified NOS1 enzyme activity
Details: mean ± SEM, N = 3
Structures can show the parent of a compound that is named as a salt.
Documented IC50 across a set of compounds
observation type: IC50 (µM)

- O=[N+]([O-])c1cccc2cn[nH]c12: 72
- N=C(N)SCCc1cccc(CCSC(=N)N)c1: 4.7
- CCSC(=N)Nc1ccc(C(F)(F)F)cc1 [ETPI, HCl]: 7.8
- N=C(N)SCCCN: 3.8
- CC(=N)NCCCC[C@H](N)C(=O)O: 47
- N=C(N)NCCSSCCNC(=N)N [GED, Guanidinoethyldisulfide 2H2CO3]: 280
- CC1CCN=C(N)S1 (stereo not shown) [AMT, HCl]: 0.092
- CC(=N)NCCSCC[C@H](N)C(=O)O: 140
- COC(=O)[C@@H](N)CCCNC(N)=N[N+](=O)[O-] [L-NAME, N^G-Nitro-L-arginine-methyl ester HCl]: 0.89
- CCSC(=N)N: 7.7
